Quick reference for pKd among some binders
target: S1-RBD (ACROBiosystems SPD-C82E9) (SARS-CoV-2 (Wuhan-Hu-1 strain), UniProt P0DTC2 319-541); experiment: SPR
No end group written: not given here.
Note on pKd: it is the negative log10 of concentration, concentration in mol/L.

Consider the reported pKd for these binders:
- Binder: "ACEDNDWVYCSTCA (not fully specified (bridges); also: Bicycle) [E3 Bicycle (exemplar of epitope group 3)]"
  Val: 5.64
- Binder: "ACEYVGPMCYRLYCA (not fully specified (bridges); also: Bicycle) [E1 Bicycle (exemplar of epitope group 1)]"
  Val: 5.44
- Binder: "ACPYVAGRGTCLLCA (not fully specified (bridges); also: Bicycle) [E2 Bicycle (canonical exemplar of epitope group 2)]"
  Val: 6.19

Just so you know, measured pKd for ACMNPFFYDCETVCA (not fully specified (bridges); also: bicyclic peptide, scaffold not named) [E9 Bicycle (exemplar of epitope group 9)] came out at 5.39

The measured values listed here are drawn from paper PMC10275983.
